Where these numbers come from: PubChem BioAssay (NCATS)

# Lookup of reported cell viability, % of control (lower = more cytotoxic) keyed by entry
assay: High-throughput drug toxicity screening in the BPDCN cell line Gen2.2 (AID 1224824); conditions: Gen2.2 BPDCN cells; at 45.8 µM (top of the series) unless noted;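 also: cells exposed to compounds for 48 h before reading; 100% = DMSO and 0% = bortezomib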
endpoint: cell viability, % of control (lower = more cytotoxic) (%)

1. COc1ccc(C(=O)CC2(O)C(=O)Nc3c(Cl)ccc(Cl)c32)cc1 (stereo not given)	26.7
2. C[C@@]12O[C@@H](C[C@]1(O)CO)n1c3ccccc3c3c4c(c5c6ccccc6n2c5c31)CNC4=O	9.33
3. COc1cc(C(=O)N2CCC(N3CCN(C)CC3)CC2)ccc1Nc1ncc2c(n1)N(C)c1ccccc1C(=O)N2C	2.17
4. C[C@@H](Oc1cc(-c2cnn(C3CCNCC3)c2)cnc1N)c1c(Cl)ccc(F)c1Cl	13.2
5. O=C(Nc1cc(C(F)(F)F)cc(C(F)(F)F)c1)c1cc(Cl)ccc1O	7.43
6. O=C(CCCCCCNC(=O)c1cnc(N(c2ccccc2)c2ccccc2)nc1)NO	5.14
7. CNC(=O)c1c(F)cccc1Nc1nc(Nc2cc3c(cc2OC)CCN3C(=O)CN(C)C)nc2[nH]ccc12	5.55
8. Cn1c2ccccc2c2c3c(c4c5ccccc5n(CCC#N)c4c21)CNC3=O	12.7
9. Nc1nc(-c2nn(Cc3ccccc3F)c3ncccc23)nc(N)c1N1CCOCC1	199
10. Cc1cccc(C=NNc2cc(N3CCOCC3)nc(OCCc3ccccn3)n2)c1	60.1
11. CNC(=O)CN1CCC(Oc2cc3c(Nc4cccc(Cl)c4F)ncnc3cc2OC)CC1	50.7
12. O=C(O)C1(Cc2cccc(Nc3nccs3)n2)CCC(Oc2cccc(Cl)c2F)CC1 (stereo not given)	88.8
13. CN1CCN(c2ccc3nc(-c4c(N)c5c(F)cccc5[nH]c4=O)[nH]c3c2)CC1	9.8
14. COc1cccc(-c2ccc(NC(=O)C3=C(C(=O)O)CCC3)c(F)c2)c1	19
15. Cc1cc(N2CCOCC2)cc2[nH]c(-c3c(NC[C@@H](O)c4cccc(Cl)c4)cc[nH]c3=O)nc12	25
16. C=CC(=O)Nc1cccc(Oc2nc(Nc3ccc(N4CCN(C)CC4)cc3OC)ncc2Cl)c1	8
17. C[C@@H](Oc1cc(-n2cnc3ccc(CN4CCN(C)CC4)cc32)sc1C(N)=O)c1ccccc1C(F)(F)F	3.33
18. CCCNC(=O)Nc1ccc(Oc2ncnc3cc(OC)c(OC)cc23)cc1Cl	69.6
19. CCCCOc1c(C(=O)c2c(F)cc(C)cc2F)cnc2n[nH]cc12	8.67
